Reference source: the supplement of paper PMC11246515

TEST_PROTOCOL: total protein half-life in vivo (active degradation + dilution); higher = more stable protein
CONDITION_NOTES: E. coli NCM3722 delta-hslV; growth: N-lim chemostat; doubling time 6 h
MEASURED_PARAMETER: total protein half-life in vivo (h)
Give the number; h is assumed, so skip it.

Qu. Report total protein half-life in vivo, nothing else, for this sequence: `MVINCAFIGFGKSTTRYHLPYVLNRKDSWHVAHIFRRHAKPEEQAPIYSHIHFTSDLDEVLNDPDVKLVVVCTHADSHFEYAKRALEAGKNVLVEKPFTPTLAQAKELFALAKSKGLTVTPYQNRRFDSCFLTAKKAIESGKLGEIVEVESHFDYYRPVAETKPGLPQDGAFYGLGVHTMDQIISLFGRPDHVAYDIRSLRNKANPDDTFEAQLFYGDLKAIVKTSHLVKIDYPKFIVHGKKGSFIKYGIDQQETSLKANIMPGEPGFAADDSVGVLEYVNDEGVTVREEMKPEMGDYGRVYDALYQTITHGAPNYVKESEVLTNLEILERGFEQASPSTVTLAK`
Ans. 5.38

Qu. Report total protein half-life in vivo, nothing else, for this sequence: MKVAKDLVVSLAYQVRTEDGVLVDESPVSAPLDYLHGHGSLISGLETALEGHEVGDKFDVAVGANDAYGQYDENLVQRVPKDVFMGVDELQVGMRFLAETDQGPVPVEITAVEDDHVVVDGNHMLAGQNLKFNVEVVAIREATEEELAHGHVHGAHDHHHDHDHDGCCGGHGHDHGHEHGGEGCCGGKGNGGCGCH [P0A9K9]
Ans. 3.46

Qu. Report total protein half-life in vivo, nothing else, for this sequence: `MSHRDTLFSAPIARLGDWTFDERVAEVFPDMIQRSVPGYSNIISMIGMLAERFVQPGTQVYDLGCSLGAATLSVRRNIHHDNCKIIAIDNSPAMIERCRRHIDAYKAPTPVDVIEGDIRDIAIENASMVVLNFTLQFLEPSERQALLDKIYQGLNPGGALVLSEKFSFEDAKVGELLFNMHHDFKRANGYSELEISQKRSMLENVMLTDSVETHKARLHNAGFEHSELWFQCFNFGSLVALKAEDAA`
Ans. 3.42

----------
Kindly supply the reported total protein half-life in vivo values for the records listed here.
TEST_PROTOCOL: total protein half-life in vivo (active degradation + dilution); higher = more stable protein
CONDITION_NOTES: wild type E. coli NCM3722; growth: N-lim chemostat; doubling time 12 h
Give the number; h is assumed, so skip it.

Qu. Report total protein half-life in vivo, nothing else, for this sequence: `MAELSDQEMLRYNRQIILRGFDFDGQEALKDSRVLIVGLGGLGCAASQYLASAGVGNLTLLDFDTVSLSNLQRQTLHSDATVGQPKVESARDALTRINPHIAITPVNALLDDAELAALIAEHDLVLDCTDNVAVRNQLNAGCFAAKVPLVSGAAIRMEGQITVFTYQDGEPCYRCLSRLFGENALTCVEAGVMAPLIGVIGSLQAMEAIKMLAGYGKPASGKIVMYDAMTCQFREMKLMRNPGCEVCGQ`
Ans. 9.95

Qu. Report total protein half-life in vivo, nothing else, for this sequence: `MLKTIRKHGITLALFAAGSTGLTAAINQMTKTTIAEQASLQQKALFDQVLPAERYNNALAQSCYLVTAPELGKGEHRVYIAKQDDKPVAAVLEATAPDGYSGAIQLLVGADFNGTVLGTRVTEHHETPGLGDKIELRLSDWITHFAGKKISGADDAHWAVKKDGGDFDQFTGATITPRAVVNAVKRAGLYAQTLPAQLSQLPACGE`
Ans. 11.9

Qu. Report total protein half-life in vivo, nothing else, for this sequence: `MALPILLDCDPGHDDAIAIVLALASPELDVKAITSSAGNQTPEKTLRNVLRMLTLLNRTDIPVAGGAVKPLMRELIIADNVHGESGLDGPALPEPTFAPQNCTAVELMAKTLRESAEPVTIVSTGPQTNVALLLNSHPELHSKIARIVIMGGAMGLGNWTPAAEFNIYVDPEAAEIVFQSGIPVVMAGLDVTHKAQIHVEDTERFRAIGNPVSTIVAELLDFFLEYHKDEKWGFVGAPLHDPCTIAWLLKPELFTSVERWVGVETQGKYTQGMTVVDYYYLTGNKPNATVMVDVDRQGFVDLLADRLKFYA`
Ans. 7.25

Qu. Report total protein half-life in vivo, nothing else, for this sequence: MQLTSFTDYGLRALIYMASLPEGRMTSISEVTDVYGVSRNHMVKIINQLSRAGYVTAVRGKNGGIRLGKPASAIRIGDVVRELEPLSLVNCSSEFCHITPACRLKQALSKAVQSFLTELDNYTLADLVEENQPLYKLLLVE [P0AF63]
Ans. 10.2
